Origin of values: PubChem BioAssay AID540275

# targetUnderTest: Transient receptor potential cation channel subfamily V member 1 (Homo sapiens)
# measurementDescription: HTS Assay for Compounds that Act as Agonists of the Vanilloid Receptor 1; further: 0% is about no effect
# testSettings: TRPV1-expressing cells, Fluo-8 calcium influx, agonist mode; at 8.33 µM
Among all 320,000 compounds or so, about 620 (0.19%) were called active. Another 6% or so got no clear call; they are omitted. No stated cut-off is given here; in the data, active means activation above about 80%; inconclusive means between about 30% and that limit; inactive means weaker than that. The sample as a whole holds a higher share of actives than the screen did.
Select the correct class. Options are active, inactive and nothing else.

compound	categoryLabel
Cc1ccc(NC(=O)c2cc3ccccc3o2)cc1	active
C/C(=N\NC(=S)Nc1ccc(C)cc1)c1cc2ccccc2o1	inactive

Lab note: next compound to report on.
Recorded test call requested for COc1cccc(NC(=S)NCCCN2CCOCC2)c1
inactive

====

# targetUnderTest: Transient receptor potential cation channel subfamily V member 1 (Homo sapiens) (UniProt Q8NER1)
# Sequence (Q8NER1 whole entry, looked up): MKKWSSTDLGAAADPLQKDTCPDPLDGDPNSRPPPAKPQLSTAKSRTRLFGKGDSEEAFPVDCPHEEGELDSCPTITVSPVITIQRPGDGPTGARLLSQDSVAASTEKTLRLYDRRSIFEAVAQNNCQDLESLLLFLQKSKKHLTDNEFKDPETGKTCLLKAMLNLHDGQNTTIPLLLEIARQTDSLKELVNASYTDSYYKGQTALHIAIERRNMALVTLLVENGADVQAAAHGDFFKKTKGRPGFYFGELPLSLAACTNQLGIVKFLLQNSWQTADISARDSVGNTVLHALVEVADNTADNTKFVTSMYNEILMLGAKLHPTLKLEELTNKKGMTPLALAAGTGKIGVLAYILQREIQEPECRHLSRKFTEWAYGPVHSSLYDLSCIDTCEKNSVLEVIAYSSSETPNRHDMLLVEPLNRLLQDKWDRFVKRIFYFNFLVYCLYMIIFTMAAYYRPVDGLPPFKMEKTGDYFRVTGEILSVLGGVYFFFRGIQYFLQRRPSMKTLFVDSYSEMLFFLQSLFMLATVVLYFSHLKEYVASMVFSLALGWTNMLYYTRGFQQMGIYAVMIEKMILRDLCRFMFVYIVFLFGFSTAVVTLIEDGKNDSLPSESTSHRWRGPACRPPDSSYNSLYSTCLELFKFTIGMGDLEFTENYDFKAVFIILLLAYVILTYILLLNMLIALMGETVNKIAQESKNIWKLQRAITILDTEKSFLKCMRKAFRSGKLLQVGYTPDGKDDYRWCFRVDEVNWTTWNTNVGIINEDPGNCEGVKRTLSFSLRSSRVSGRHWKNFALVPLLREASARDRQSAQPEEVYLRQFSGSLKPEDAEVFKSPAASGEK
# measurementDescription: HTS Assay for Compounds that Act as Agonists of the Vanilloid Receptor 1; further: 0% is about no effect
# testSettings: TRPV1-expressing cells, Fluo-8 calcium influx, agonist mode; at 8.33 µM; hits give high values
Screen size: about 320,000 compounds; about 620 (0.19%) were called active. About 6% were inconclusive and are not listed. What follows is part of a selection rich in actives, with near analogues and random picks from the rest.
The compounds listed here are annotated with their activation.
Output spec: scalar in %, unitless text.

compound	activation (%)
CCn1c(=O)c(=O)n(CC)c2cc(N3CCCCC3)c(NC(=O)c3ccc(Cl)cc3)cc21	-4.74
CC(NC(=O)COC(=O)c1cc(=O)[nH]c2ccccc12)c1ccccc1 (stereo not given)	3.95
CCc1ccc(C(=O)N2CCN(S(=O)(=O)c3sc(C(=O)O)c(C)c3C(=O)O)CC2)cc1	0.16
Cc1csc(NC(=O)C2CCN(S(=O)(=O)c3ccccc3)CC2)n1	0.443

// next item, activation requested
Would you mind telling me what activation value was observed for CC(NC(=O)COC(=O)c1ccc(Cl)cc1O)c1ccc(F)cc1 (stereo not given) ?
96.5

====

# targetUnderTest: Transient receptor potential cation channel subfamily V member 1 (Homo sapiens) (UniProt Q8NER1)
# measurementDescription: HTS Assay for Compounds that Act as Agonists of the Vanilloid Receptor 1; further: 0% is about no effect
# testSettings: TRPV1-expressing cells, Fluo-8 calcium influx, agonist mode; at 8.33 µM; hits give high values
# Description: The transient receptor potential ion channel, family V, number 1, (TRPV1) is one of the most important molecular transducers of painful stimuli and a potential target for analgesic drug development. […] Upon TRPV1 activation in TRPV1 cells, the channel opens and extracellular cations flow through the channel into the cytosol. […] The amount of accumulated calcium is precisely quantified using the FDSS kinetic reader and the calcium dye. […] Signal will be measured kinetically for an additional 2 minutes. […]
The whole screen tested about 320,000 compounds, of which about 620 (0.19%) were called active. Roughly 6% stayed inconclusive and do not appear here. The sample as a whole holds a higher share of actives than the screen did.
The compounds listed here are annotated with their activation.
Output spec: scalar in %, unitless text.

A selection of reference data follows.
compound	valueType	valueUnit	reading
COc1ccc(C(=O)N2CCN(c3ncccn3)CC2)cc1S(=O)(=O)N1CCOCC1	activation	%	4.11
CCOC(=O)c1sc(N)c(C#N)c1COC(=O)C1=COCCO1	activation	%	-7.68
Cc1cccc(C)c1NC(=O)COC(=O)c1c(C)nn(-c2ccccc2)c1C	activation	%	0.597
CCCCN(CC(=O)Nc1cccc(S(=O)(=O)N2CCCC2)c1)Cc1nc2ccccc2c(=O)[nH]1	activation	%	26.8
CCOc1ccc(CCNC(=O)COC(=O)c2c(OC)cccc2OC)cc1OCC	activation	%	-2.55
Cc1ccc2nc(-c3ccccn3)cc(C(=O)Nc3ccc4c(c3)OCO4)c2c1	activation	%	90.2

Would you mind telling me what activation value was observed for Cc1cc(C)c(CN2CCN(C(=O)Cn3ccc(NC(=O)OCc4ccccc4)nc3=O)CC2)c(C)c1 ?
1.97

Would you mind telling me what activation value was observed for COc1ccc(C(=O)OCC(=O)c2cc(C)n(CC3CCCO3)c2C)cc1[N+](=O)[O-] (configuration not stated) ?
-3.97

Would you mind telling me what activation value was observed for CCOc1ccc(CCNC(=O)Nc2ccccc2)cc1OCC ?
91.3

====

# targetUnderTest: Transient receptor potential cation channel subfamily V member 1 (Homo sapiens) (UniProt Q8NER1)
# measurementDescription: HTS Assay for Compounds that Act as Agonists of the Vanilloid Receptor 1; further: 0% is about no effect
# testSettings: TRPV1-expressing cells, Fluo-8 calcium influx, agonist mode; at 8.33 µM; hits give high values
In all, about 320,000 compounds went through this assay and about 620 (0.19%) were called active. About 6% were inconclusive and are not listed. The sample as a whole holds a higher share of actives than the screen did.
valueType: activation (%)
Output spec: scalar in %, unitless text.

molecule	activation (%)
CCOC(=O)[C@H]1[C@H]2COc3ccc(OC)cc3[C@@H]2N2C(=O)c3ccc(F)cc3NC(=O)[C@@]12C	88.1
COc1ccccc1Nc1nnc(SC(C)C(=O)NC2CC2)s1 (centres undefined)	0.405
O=C(OCC(=O)N1CCN(C(=O)c2ccco2)CC1)c1ccc(Cl)c(Cl)c1	2.6
Cc1csc(=O)n1CCC(=O)OCC(=O)NNC(=O)c1ccc(Br)cc1	2.91
Cc1ccc2ccc3c(c2n1)NS(=O)(=O)c1ccccc1-3	-1.69

// next item, activation requested
Would you mind telling me what activation value was observed for CC(C)N(C(=O)CN1CCN(S(=O)(=O)c2ccc(Br)s2)CC1)C(C)C ?
17.4

====

# targetUnderTest: Transient receptor potential cation channel subfamily V member 1 (Homo sapiens)
# measurementDescription: HTS Assay for Compounds that Act as Agonists of the Vanilloid Receptor 1; further: 0% is about no effect
# testSettings: TRPV1-expressing cells, Fluo-8 calcium influx, agonist mode; at 8.33 µM; hits give high values
Out of some 320,000 compounds screened, about 620 (0.19%) were called active. Another 6% or so got no clear call; they are omitted. What follows is part of a selection rich in actives, with near analogues and random picks from the rest.
The compounds listed here are annotated with their activation.
Output spec: scalar in %, unitless text.

compound	activation, %
CN(C(=O)CSc1nnc(-c2ccc3c(c2)OCO3)o1)C1CCS(=O)(=O)C1 (stereo unspecified)	1.32

Would you mind telling me what activation value was observed for CCc1nc(C)ccc1OCC(=O)N(CC)CC ?
2.63

Would you mind telling me what activation value was observed for C[C@H](NC(=O)c1[nH]cnc1C(=O)Nc1nccs1)c1ccccc1 ?
3.08

====

The molecules listed here are annotated with their activation.
# targetUnderTest: Transient receptor potential cation channel subfamily V member 1 (Homo sapiens) (UniProt Q8NER1)
# measurementDescription: HTS Assay for Compounds that Act as Agonists of the Vanilloid Receptor 1; further: 0% is about no effect
# testSettings: TRPV1-expressing cells, Fluo-8 calcium influx, agonist mode; at 8.33 µM; hits give high values
Screen size: about 320,000 compounds; about 620 (0.19%) were called active. Inconclusive results (about 6%) are left out. For the sample, actives were picked, then their nearest neighbours and some compounds at random.
Output spec: scalar in %, unitless text.

A selection of reference data follows.
molecule	reading
CC1CCN(C2=NC(=O)/C(=C/c3ccc(O)cc3)S2)CC1	2.66
Cc1ccccc1S(=O)(=O)N1[C@@H](c2cccc(Cl)c2)C(C(=O)O)=CC[C@H]1c1ccc(Cl)cc1	-4.35
COc1ccccc1Nc1cc(C(=O)NCCCN(C)C2CCCCC2)c2ccccc2n1	5.29
CCN(CC(=O)Nc1ccc(OC)cc1)C(=O)CSCc1ccc(C)cc1	12.3
O=C(CSc1ccccc1)Nc1cccc(S(=O)(=O)N2CCCCC2)c1	21.4

Would you mind telling me what activation value was observed for CCc1ccc(/C=C2\SC(N3CCOCC3)=NC2=O)cc1 ?
89.7

Would you mind telling me what activation value was observed for COc1cccc(N2CCN(CC(=O)Nc3ccnn3C3CCCC3)CC2)c1 ?
1.23

Would you mind telling me what activation value was observed for CC(=O)c1ccc(-c2ccc(Cn3c(C)nc4cc(N)c(C)nc43)cc2)cc1 ?
4.86

Would you mind telling me what activation value was observed for COc1ccc(C2=NN(C(=O)CSc3nnnn3C)C(c3ccco3)C2)cc1 (centres undefined) ?
-0.899

Would you mind telling me what activation value was observed for Cc1cc(C)n2nc(C(=O)Nc3cccc(S(=O)(=O)N4CCOCC4)c3)nc2n1 ?
0.0473

Would you mind telling me what activation value was observed for O=c1c2ccccc2ccc2ccc(P(=O)(O)O)cc12 ?
-0.0431

Would you mind telling me what activation value was observed for O=C(N/N=C/c1cccc(Br)c1)c1ccc(N2CCCC2=O)cc1 ?
14.1

====

# targetUnderTest: Transient receptor potential cation channel subfamily V member 1 (Homo sapiens) (UniProt Q8NER1)
# measurementDescription: HTS Assay for Compounds that Act as Agonists of the Vanilloid Receptor 1; further: 0% is about no effect
# testSettings: TRPV1-expressing cells, Fluo-8 calcium influx, agonist mode; at 8.33 µM; hits give high values
Among all 320,000 compounds or so, about 620 (0.19%) were called active. Another 6% or so got no clear call; they are omitted. The entries come from a sample that favours actives as a whole.
valueType: activation (%)
Output spec: scalar in %, unitless text.

compound	valueUnit	activation
CCCCc1ccc(NS(=O)(=O)c2cccc(C(=O)N3CCCN(C)CC3)c2)cc1	%	-2.57
CCN(CC(=O)Nc1ccccc1OC)C(=O)CC1CC2CCC1C2 (stereo not given)	%	23.5
CCOC(=O)c1ccc(NC(=O)c2cccnc2)cc1	%	-0.797
CCCn1c(N)c(N(CCOC)C(=O)C2CCCC2)c(=O)[nH]c1=O	%	1.46
CC(C)N(Cc1nnc(-c2ccccc2Br)o1)C(=O)c1cc(Cl)nc2ccccc12	%	9.24
CCN(CC)c1ccc(NC(=O)c2ccc(Cl)nc2)cc1	%	82
O=C(c1ccc(Cl)c(S(=O)(=O)N2CCCCCC2)c1)N1CCN(c2ccc(O)cc2)CC1	%	13.5
CC(=O)c1ccc(OCCCC(=O)Nc2ccc(C)c(S(=O)(=O)N3CCOCC3)c2)cc1	%	5.88
Cc1ccc2c(CN3CCN(S(=O)(=O)c4ccccc4C(F)(F)F)CC3)cc(=O)oc2c1	%	4.46

// next item, activation requested
Would you mind telling me what activation value was observed for CCOC(=O)CSc1nc(N2CCOCC2)c2c(c1C#N)CC(C(C)C)OC2 (stereo not given) ?
17.3
